target: Torsin-1A (Homo sapiens); assay: TOR1A wild-type binding on microarray – cell lysate, small-molecule microarray, lysate, 635/667 nm, primary screen (AID 1149); conditions: COS7 hTOR1A-WT lysate, 635 nm fluorescence, higher = more signal
Consider the following compounds and their measured composite z-score readings.

compound: COC(=O)C(CC#Cc1ccc2c(c1)[C@]1(C(=O)N2)[C@H](c2ccccc2OCCO)N2[C@H](c3ccccc3)[C@H](c3ccccc3)OC(=O)[C@H]2[C@@H]1C(N)=O)C(=O)OC
assayed-system: Torsin-1A (Homo sapiens)
composite z-score: 0.412
--
compound: COC(=O)c1c2oc(c1C(=O)OC)C(=O)NC1(CCCCC1)c1cn(nn1)C[C@H](Cc1ccccc1)NC(=O)N[C@H](CO)CC2
assayed-system: Torsin-1A (Homo sapiens)
composite z-score: -0.299
--
compound: CCCC=C(CCC)[C@@H](NS(=O)(=O)c1ccc(Cl)cc1)c1ccc(C(=O)OC)cc1
assayed-system: Torsin-1A (Homo sapiens)
composite z-score: 0.771
--
compound: CCCCCN1CC=CC23O[C@@H]4C=CCOC(=O)[C@@H]4[C@H]2C(=O)N(C(C)CO)[C@@H]3C1=O (stereo partly specified)
assayed-system: Torsin-1A (Homo sapiens)
composite z-score: 0.909
--
compound: COCCOC(=O)N1C(=O)[C@@]2(c3ccccc31)[C@H](c1ccc(OCCO)cc1)N1[C@H](c3ccccc3)[C@H](c3ccccc3)OC(=O)[C@H]1[C@@H]2C(=O)N1CCc2cc(OC)c(OC)cc2C1
assayed-system: Torsin-1A (Homo sapiens)
composite z-score: 0.518
--
compound: C=CCOC(=O)[C@H]1[C@@H]2C(=O)O[C@@H](c3ccccc3)[C@@H](c3ccccc3)N2[C@@H](c2ccc(OCCOC(=O)[C@@H]3C[C@@H]4C(=O)N5CCC[C@H]5C(=O)N4[C@@H]3c3cccc(OCCO)c3)cc2)[C@]12C(=O)Nc1ccc(I)cc12
assayed-system: Torsin-1A (Homo sapiens)
composite z-score: 0.821

----------
assay: changes in parasitized red cell lysis, either direction – P. falciparum Indochina, OD700, 3 h, PSAC antagonist project, primary screen (AID 1156); conditions: P. falciparum-infected erythrocytes, osmotic lysis, higher = more signal, called active from +8 up or from −8 down
Consider the following molecules and their measured z-score readings.

molecule: O=C1NC(=O)C2C1C=CC(C(O)C=Cc1ccc([N+](=O)[O-])cc1)N2Nc1ccc(Cl)cc1Cl (configuration not stated)
z-score: 2.09

molecule: NC(=O)[C@@]1(Cc2ccccc2)N=C(c2ccc(OCCCO)cc2)O[C@H]1c1ccccc1
z-score: 0.59

molecule: O=C1OCC=C[C@H]2OC34C=CCN(CCN5CCOCC5)C(=O)[C@H]3N(CCO)C(=O)[C@@H]4[C@@H]12 (some centres not stated)
z-score: -0.392

molecule: CN1C(=O)C2C=CC(C(O)c3ccc(F)cc3)N(N(c3ccccc3)c3ccccc3)C2C1=O (configuration not stated)
z-score: 0.39

molecule: O=C1O[C@H](c2ccccc2)[C@H](c2ccccc2)N2[C@H]1[C@@H](C(=O)NC[C@H](O)c1ccccc1)[C@]1(C(=O)Nc3ccccc31)[C@H]2c1ccc(O)cc1
z-score: -0.214

molecule: C=C(CCCC)/C(=C/C[C@@H](OC(C)=O)c1cccc(OCCO)c1)c1cnc2ccccc2c1
z-score: 2.48

molecule: C=C[C@H](C)[C@@H](OC(=O)Nc1ccc(SC)cc1)c1ccc(O)c2ccccc12
z-score: 2.51

molecule: COc1cc(OC)c(C(O)C2C=CC3C(=O)NC(=O)C3N2Nc2ccccn2)cc1Br (configuration not stated)
z-score: 0.332

molecule: [N-]=[N+]=Nc1ccccc1[C@H]1OC(c2ccc(OCCCO)cc2)=N[C@@]1(Cc1ccccc1)C(=O)N1CCOCC1
z-score: 2.96

molecule: O=C1C2C=CC(C(O)c3c(F)cccc3Cl)N(Nc3ccccc3F)C2C(=O)N1c1ccccc1 (configuration not stated)
z-score: 0.303

molecule: O=C(CS)NCCCCCNC(=O)[C@H]1C[C@H]2C(=O)NCC(=O)N2[C@H]1c1ccc(O)cc1
z-score: -0.813

molecule: COCCCNC(=O)[C@]1(Cc2ccccc2)N=C(c2ccc(OCCCO)cc2)O[C@@H]1c1ccccc1CN=[N+]=[N-]
z-score: 1.44

molecule: O=C(NCc1ccccc1)[C@@H]1c2ccccc2C(=O)N(C2Cc3ccccc3C2)[C@H]1c1ccc(CO)cc1
z-score: -0.0549

molecule: O=C1[C@H]2C=C(I)[C@H](C[C@@H]2OCCCCO)[C@@]12CO2
z-score: 0.282

molecule: CC#CC(=O)Oc1ccc(Br)cc1C=CC(=O)OCC
z-score: -0.189

molecule: CCOC(=O)C[C@H]1[C@H](OC(=O)c2ccc(C(=O)c3ccccc3)cc2)[C@@H](NC(=O)Cc2ccc(OC)cc2)c2cc(OCCCO)ccc2N1C(=O)c1ccc2ccccc2n1
z-score: -0.392

molecule: CCCC[C@H]1C[C@@H]1[C@@H]1N(P(=O)(c2ccccc2)c2ccccc2)C[C@@](O)(c2ccccc2)CC12CC2
z-score: 0.425

molecule: CCN(CC)c1ccc(N2CC=CC34O[C@@H]5/C=C\CCC(C)OC(=O)C5[C@H]3C(=O)N(CCCCCO)[C@@H]4C2=O)cc1 (some centres not stated)
z-score: -0.356

molecule: CCOC(=O)C[C@H]1[C@H](OC(=O)c2cc3ccccc3oc2=O)[C@@H](NC(=O)CC(C)C)c2cc(OCCCO)ccc2N1C(=O)c1ccccc1
z-score: 0.71

molecule: COCCOC(=O)N1C(=O)[C@@]2(c3cc(C#Cc4ccc(OC)cc4)ccc31)[C@H](c1ccc(O)cc1)N1[C@H](c3ccccc3)[C@H](c3ccccc3)OC(=O)[C@H]1[C@@H]2C(=O)Nc1nc2ccccc2s1
z-score: -1.14

molecule: CCC(CC)C(O)C1C=CC2C(=O)N(c3ccccc3)C(=O)C2N1Nc1ccccc1 (configuration not stated)
z-score: 0.301

molecule: CC(c1ccccc1)C(O)C1C=CC2C(=O)N(c3ccccc3)C(=O)C2N1Nc1ccccc1 (configuration not stated)
z-score: 2.47

molecule: COCC(=C=CC[C@H](O)c1ccccc1OCCO)CCO
z-score: -0.107

molecule: C[N+](C)(C)CCCCCCNC(=O)[C@H]1C[C@H]2C(=O)N[C@@H](Cc3ccccc3)C(=O)N2[C@H]1c1cccc(OCCO)c1
z-score: -1.42

molecule: CCCC1(C(=O)OC)C=C2C(=C(c3ccccc3)C(=O)C2C)CN1 (configuration not stated)
z-score: 0.923

molecule: COc1ccc([Si](C)(C)[C@@H]2[C@@H](CCn3cc([C@H](O)c4ccccc4)nn3)O[C@]3(C(=O)N(Cc4cccc(N5CCC5=O)c4)c4ccccc43)[C@H]2C)cc1
z-score: 0.538

molecule: C=CCC(OC(C)=O)[C@@H]1[C@@H](N(Cc2ccc(-c3cccc(C(F)(F)F)c3)o2)C(=O)Cc2ccc(OC)cc2)c2cc(OCCCO)ccc2N1C(=O)c1ccc2ccccc2c1 (some centres not stated)
z-score: 2.68

molecule: COc1ccc(C(O)C2C=CC3C(=O)N(C)C(=O)C3N2N(c2ccccc2)c2ccccc2)c2ccccc12 (configuration not stated)
z-score: 0.39

molecule: O=C1C2C=CC(C(O)C=Cc3ccc([N+](=O)[O-])cc3)N(Nc3ccccc3F)C2C(=O)N1c1ccccc1 (configuration not stated)
z-score: 0.105

molecule: O[C@@H](Cc1ccccc1)[C@@H](/C=C/C1CC1)NCc1cccc(Cl)c1
z-score: 0.972

molecule: CC(=O)Nc1cc(Br)ccc1C(=O)NCc1ccccc1
z-score: 0.0319

molecule: COc1cc2c(cc1O)C(c1cccs1)N(Cc1cccc(OC(F)(F)F)c1)CC2 (configuration not stated)
z-score: 0.112

----------
target: Torsin-1A (Homo sapiens); assay: TOR1A wild-type binding on microarray – cell lysate, small-molecule microarray, lysate, 635/667 nm, primary screen (AID 1149); settings: COS7 hTOR1A-WT lysate, 635 nm fluorescence, higher = more signal
Consider the following compounds and their measured composite z-score readings.
assay-readout: composite z-score

chemical-structure: C=C(/C(=C/C[C@H](OC(=O)c1ccncc1)c1ccc(OCCO)cc1)c1cc(C(=O)OC)ccc1OC)C(C)C
assay-readout: composite z-score
reading: -0.511

chemical-structure: COc1ccc([C@H]2OC[C@@H]3CCC(=O)N32)cc1
assay-readout: composite z-score
reading: 1.08

chemical-structure: C=CCNC(=O)[C@H]1[C@@H]2C(=O)O[C@@H](c3ccccc3)[C@@H](c3ccccc3)N2[C@@H](c2ccc(OCCO)cc2)[C@]12C(=O)Nc1ccc(C#CCC(C(=O)OC)C(=O)OC)cc12
assay-readout: composite z-score
reading: 0.332

chemical-structure: C#CCN1[C@H](/C=C/C2CC2)[C@H](Cc2ccccc2)OC(=O)[C@@H]1Cc1ccccc1
assay-readout: composite z-score
reading: 0.349

----------
Consider the following compounds and their measured composite z-score readings.
test: probe aLAP1 signal on lysate-treated microarray – cell lysate, small-molecule microarray, COS7 lysate, primary screen (AID 1124); details: probe aLAP1, fluorescence, higher = more signal;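 also: lysate comes from COS7 cells expressing LAP1 and is applied at 0.3 µg/mL; score merges spot fluorescence near 667 nm with signal-to-noise over triplicate slides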

compound: COC(=O)[C@@]1(Cc2ccc(OC)cc2)[C@H]2c3cc(C(=O)N(C)C)n(Cc4ccc(C(F)(F)F)nc4)c3C[C@H]2CN1C(=O)c1ccccc1
composite z-score: 0.017
//
compound: C=CC[C@]1(C(=O)NCc2ccccc2)N=C(c2ccc(OCCCO)cc2)O[C@H]1c1ccccc1CN=[N+]=[N-]
composite z-score: 0.403
//
compound: COC(=O)C(CC#Cc1ccc2c(c1)[C@]1(C(=O)N2)[C@H](c2ccc(O)cc2)N2[C@H](c3ccccc3)[C@H](c3ccccc3)OC(=O)[C@H]2[C@@H]1C(=O)N1CCN(c2ncccn2)CC1)C(=O)OC
composite z-score: 0.415
//
compound: NCCCCCCNC(=O)[C@H]1C[C@H]2C(=O)N[C@@H](Cc3ccccc3)C(=O)N2[C@H]1c1cccc(OCCO)c1
composite z-score: 0.464
//
compound: O=C1O[C@@H](c2ccccc2)[C@@H](c2ccccc2)N2[C@@H](c3ccccc3OCCO)[C@]3(C(=O)Nc4ccccc43)[C@@H](C(=O)O)[C@H]12
composite z-score: 0.369
//
compound: COc1cc2c(cc1OC)CN(C(=O)[C@H]1[C@@H]3C(=O)O[C@@H](c4ccccc4)[C@@H](c4ccccc4)N3[C@@H](c3ccccc3OCCO)[C@]13C(=O)Nc1ccc(C#CCCO)cc13)CC2
composite z-score: -0.0376
//
compound: O=C1OCCC=C[C@H]2OC34C=CCN(Cn5nnc6ccccc65)C(=O)[C@H]3N(CCO)C(=O)[C@@H]4C12 (stereo partly drawn)
composite z-score: -0.38
//
compound: CCCC=C(CCC)[C@@H](NS(=O)(=O)c1ccc(Cl)cc1)c1ccc(C(=O)OC)cc1
composite z-score: -0.159
//
compound: C=C(CCCC)/C(=C/C[C@H](OC(C)=O)c1ccccc1OCCO)c1cnc2ccccc2c1
composite z-score: 0.0282
//
compound: COCCOC(=O)N1C(=O)[C@@]2(c3cc(C#CC4=CCCCC4)ccc31)[C@H](c1ccc(OCCO)cc1)N1[C@H](c3ccccc3)[C@H](c3ccccc3)OC(=O)[C@H]1[C@@H]2C(=O)N1CCc2cc(OC)c(OC)cc2C1
composite z-score: 0.868
//
compound: CCOc1cc(C(O)C2C=CC3C(=O)N(c4ccccc4)C(=O)C3N2Nc2ccc(C(C)C)cc2)ccc1O (stereo not drawn)
composite z-score: 0.33
//
compound: COCCOC(=O)N1C(=O)[C@@]2(c3cc(C#CCCO)ccc31)[C@H](c1ccc(O)cc1)N1[C@H](c3ccccc3)[C@H](c3ccccc3)OC(=O)[C@H]1[C@@H]2C(=O)N1CCN(c2ncccn2)CC1
composite z-score: 0.782
//
compound: COCC(=C=CC[C@H](O)c1cccc(OCCO)c1)C[C@H](O)c1cc(Cl)cc(Cl)c1O
composite z-score: 0.328
